target: ARTD5/PARP5a (Homo sapiens, UniProt O95271); assay: Activity-based fluorescent assay, ARTD5
Sequence (O95271 whole entry): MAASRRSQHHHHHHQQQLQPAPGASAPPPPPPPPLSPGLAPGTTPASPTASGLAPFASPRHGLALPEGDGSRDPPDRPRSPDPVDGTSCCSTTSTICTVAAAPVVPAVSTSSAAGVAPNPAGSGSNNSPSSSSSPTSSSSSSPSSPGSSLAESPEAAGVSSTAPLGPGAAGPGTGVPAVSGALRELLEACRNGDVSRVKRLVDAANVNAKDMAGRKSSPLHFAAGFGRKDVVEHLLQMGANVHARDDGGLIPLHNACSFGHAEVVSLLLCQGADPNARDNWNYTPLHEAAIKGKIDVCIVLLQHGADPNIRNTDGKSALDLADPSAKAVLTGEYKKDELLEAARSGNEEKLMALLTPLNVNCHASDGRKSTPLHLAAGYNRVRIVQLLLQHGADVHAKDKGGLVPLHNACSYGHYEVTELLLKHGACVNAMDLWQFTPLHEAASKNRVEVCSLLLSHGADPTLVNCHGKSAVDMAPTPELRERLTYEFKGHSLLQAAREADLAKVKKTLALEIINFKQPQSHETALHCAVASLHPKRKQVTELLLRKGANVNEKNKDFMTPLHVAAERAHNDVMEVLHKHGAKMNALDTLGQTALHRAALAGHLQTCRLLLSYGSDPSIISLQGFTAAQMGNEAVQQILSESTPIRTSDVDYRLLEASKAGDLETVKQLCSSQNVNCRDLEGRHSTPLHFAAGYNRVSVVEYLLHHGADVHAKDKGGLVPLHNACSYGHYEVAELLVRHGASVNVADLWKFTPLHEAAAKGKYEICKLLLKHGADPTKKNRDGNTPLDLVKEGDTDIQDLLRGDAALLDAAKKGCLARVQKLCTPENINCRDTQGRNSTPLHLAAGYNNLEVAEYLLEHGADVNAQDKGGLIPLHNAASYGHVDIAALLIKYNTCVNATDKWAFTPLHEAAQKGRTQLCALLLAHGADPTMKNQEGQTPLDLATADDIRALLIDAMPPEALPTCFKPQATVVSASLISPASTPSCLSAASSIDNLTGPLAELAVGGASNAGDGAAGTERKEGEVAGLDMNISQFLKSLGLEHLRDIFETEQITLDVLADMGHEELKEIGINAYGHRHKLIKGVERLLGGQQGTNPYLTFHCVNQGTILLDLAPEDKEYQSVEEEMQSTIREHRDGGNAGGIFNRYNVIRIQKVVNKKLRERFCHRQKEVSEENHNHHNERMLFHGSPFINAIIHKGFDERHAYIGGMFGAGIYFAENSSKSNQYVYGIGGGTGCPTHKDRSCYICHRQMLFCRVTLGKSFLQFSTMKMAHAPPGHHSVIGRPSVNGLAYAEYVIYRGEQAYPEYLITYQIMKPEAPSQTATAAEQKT
value.type: IC50

Lookup: Consider the molecule NC(=O)c1ccc(Oc2ccc(C(N)=O)cc2)cc1 [OUL35, 4,4′-oxydibenzamide] and give its measured IC50.
Found: > 100 µM

----------
target: ARTD7/PARP15 (Homo sapiens); assay: biochemical
Sequence (Q460N3 whole entry): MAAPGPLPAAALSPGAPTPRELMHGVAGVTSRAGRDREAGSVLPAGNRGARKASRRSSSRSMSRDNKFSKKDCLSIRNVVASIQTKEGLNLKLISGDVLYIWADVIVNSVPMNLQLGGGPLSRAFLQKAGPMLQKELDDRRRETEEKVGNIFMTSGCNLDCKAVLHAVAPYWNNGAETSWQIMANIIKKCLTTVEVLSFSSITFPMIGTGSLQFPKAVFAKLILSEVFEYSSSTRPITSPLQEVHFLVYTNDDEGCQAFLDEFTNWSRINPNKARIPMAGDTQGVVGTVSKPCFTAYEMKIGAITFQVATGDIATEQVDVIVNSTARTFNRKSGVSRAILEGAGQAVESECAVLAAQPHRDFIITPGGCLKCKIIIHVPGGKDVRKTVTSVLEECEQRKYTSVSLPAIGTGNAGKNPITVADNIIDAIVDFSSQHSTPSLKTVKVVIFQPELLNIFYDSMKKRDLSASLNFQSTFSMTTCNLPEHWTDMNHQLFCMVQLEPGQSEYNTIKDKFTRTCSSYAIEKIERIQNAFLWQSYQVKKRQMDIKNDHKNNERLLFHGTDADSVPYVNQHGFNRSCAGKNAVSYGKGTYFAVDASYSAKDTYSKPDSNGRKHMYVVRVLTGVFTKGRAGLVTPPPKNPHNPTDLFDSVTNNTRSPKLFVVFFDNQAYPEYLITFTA
value.type: IC50

Lookup: Consider the compound NC(=O)c1ccc(Oc2ccc(C(N)=O)cc2)cc1 [OUL35, 4,4′-oxydibenzamide] and give its measured IC50.
Found: > 20 µM

----------
Target: ARTD3/PARP3 (Homo sapiens, UniProt Q9Y6F1)
Sequence (Q9Y6F1 1-533): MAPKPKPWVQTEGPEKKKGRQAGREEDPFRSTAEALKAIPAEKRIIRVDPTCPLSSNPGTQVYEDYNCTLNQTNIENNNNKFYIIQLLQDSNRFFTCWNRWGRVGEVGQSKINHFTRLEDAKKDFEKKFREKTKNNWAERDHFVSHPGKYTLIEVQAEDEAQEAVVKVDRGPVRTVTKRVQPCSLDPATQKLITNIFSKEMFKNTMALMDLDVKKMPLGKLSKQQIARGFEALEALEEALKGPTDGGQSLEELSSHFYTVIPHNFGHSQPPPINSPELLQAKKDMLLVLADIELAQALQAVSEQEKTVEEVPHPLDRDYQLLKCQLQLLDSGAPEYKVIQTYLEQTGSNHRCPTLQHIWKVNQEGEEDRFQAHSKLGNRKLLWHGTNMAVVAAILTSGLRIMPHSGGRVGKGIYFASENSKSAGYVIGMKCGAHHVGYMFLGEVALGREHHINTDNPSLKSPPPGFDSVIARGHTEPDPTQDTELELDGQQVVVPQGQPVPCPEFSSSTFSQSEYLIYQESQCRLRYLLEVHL
Assay: Activity-based fluorescent assay, ARTD3
value.type: IC50

Lookup: Consider the compound NC(=O)c1ccc(Oc2ccc(C(N)=O)cc2)cc1 [OUL35, 4,4′-oxydibenzamide] and give its measured IC50.
Found: > 100 µM
